The measured values listed here are drawn from PubChem BioAssay (NCI).

- Test system: U251 CNS
- Assay Explanation: NCI tumour cell line growth inhibition, 48 h
Consider the following compounds and their measured TGI readings.
The reply should be a number in µM, with the unit left off.

In: Input "CC/C(=C(\c1ccccc1)c1ccc(OCC[N+](C)(C)C)cc1)c1ccccc1" , output reported TGI.
Out: 29.2

In: Input CCN(CC)CCC(CNc1c2ccc(Cl)cc2nc2ccc(OC)cc12)c1ccccc1 (configuration not stated) , output reported TGI.
Out: 3.21

====

Consider the following compounds and their measured TGI readings.
- Tested on: SNB-75 CNS
- Assay Explanation: NCI tumour cell line growth inhibition, 48 h

1) c1ccc(C2(c3cc4ccccc4[nH]3)OCCO2)cc1 :: > 100 µM

In: # assay system SNB-75 CNS: give TGI of CCN(CC)CCCC(C)NC(=S)N/N=C(\C)c1ccccn1 (stereo not drawn)
Out: > 100 µM

In: # assay system SNB-75 CNS: give TGI of "COC(=O)C1(C(=O)OC)CC2=C(S(=O)(=O)c3ccccc3)C[C@@H](C#N)[C@H]2C1"
Out: > 100 µM

====

- System: A498 renal
- Assay Explanation: NCI tumour cell line growth inhibition, 48 h
Consider the following compounds and their measured TGI readings.

1) NC(=O)NOCC1NC(=O)NC1=O (stereo not given) :: > 100 µM
2) C[N+](C)(C)CC(=O)N/N=C(\C(=O)Nc1ccc(Cl)cc1)C1C(=O)N(c2ccccc2)N=C1N (stereo not given) :: > 100 µM
3) COc1ccc(/C=C(\NC(=O)c2ccccc2)c2nc3ccccc3[nH]2)cc1 :: > 100 µM
4) CCC1OC(=O)C(C)C(OC2CC(C)(O)C(O)C(C)O2)C(C)C(O)C(C)(O)CC(C)C(=O)C(C)C(O)C1C (stereo not given) :: > 300 µM

We next turn to a different compound, shown below.
In: Input CC(=O)NC1C(=O)CC(c2ccccc2)N(C)C1c1ccccc1 (stereo not given) , output reported TGI.
Out: > 100 µM

====

- Tested on: 786-0 renal
- Assay Explanation: NCI tumour cell line growth inhibition, 48 h
Consider the following molecules and their measured TGI readings.

1) COc1ccc(C2CC(c3ccc(OC)c(OC)c3)=NN2C(=O)c2cc(OC)c(OC)c(OC)c2)cc1 (configuration not stated) :: > 100 µM
2) Cc1ccc(-c2cn3c(nc4ccccc43)c(C)n2)cc1 :: > 75.5 µM
3) O=[N+]([O-])c1ccc(-c2ccc(C3=Nn4c(nnc4-c4ccc(Cl)cc4)SC3)o2)cc1 :: > 100 µM
4) CC(C)(Oc1ccc(C2C[C@H]2Cl)cc1)C(=O)O (some centres not stated) :: > 100 µM
5) S=C(N/N=C/c1ccccc1)NC1CC(c2ccccc2)Oc2ccccc21 (configuration not stated) :: > 100 µM
6) Nc1nc(NC(=O)C2=NS(=O)(=O)c3cc(S(N)(=O)=O)c(Cl)cc3N2)n[nH]1 :: > 100 µM

In: Input CC(=O)OC1C(OC/C2=C/C3[C@@H](C(C)C)CC=C(C)[C@@H]3CC(OC(=O)/C=C/c3cn(C)cn3)[C@]3(C)C=C[C@@]2(O)O3)OCC(O)C1O (some centres not stated) , output reported TGI.
Out: > 50 µM

====

- Tested on: SNB-19 CNS
- Assay Explanation: NCI tumour cell line growth inhibition, 48 h
Value Type: TGI (µM)
The reply should be a number in µM, with the unit left off.

# annotated cases, reported TGI shown
1. CSc1nc(Cl)c2c(n1)Sc1ncnn1C2O (centres undefined) :: 45.2
2. Cc1cccc(NC(=O)c2sc3nc4c(cc3c2N)CCC4)c1C :: 29.1
3. Cc1nc2cc(NC(=O)CN3CCN(CCN4C(=O)c5cccc6cccc(c56)C4=O)CC3)ccc2s1 :: 21.4
4. Cc1cc(C)n(CN(Cn2nc(C)cc2C)c2ccc(N(Cn3nc(C)cc3C)Cn3nc(C)cc3C)cc2)n1 :: 64.5
5. C[As](C)SCC(COC(=O)c1ccccc1)OC(=O)c1ccccc1 (centres undefined) :: 19.6
6. COc1ccc2[nH]c3c(C)c4ccnc(NCCCN(C)CCCNC(=O)NCCCN(C)CCCNc5nccc6c(C)c7[nH]c8ccc(OC)cc8c7c(C)c56)c4c(C)c3c2c1 :: 2.13
7. N#Cc1c(C#N)c(-c2ccco2)n(/N=C/c2ccco2)c1N :: 67.5
8. N#Cc1c(-c2ccc(Cl)cc2)n([O-])c2ccccc2[n+]1=O :: 48.6

We next turn to a different compound, shown below.
In: Input CCCCCCn1c(=N)n(CC(O)COc2cccc(C)c2)c2ccccc21 (centres undefined) , output reported TGI.
Out: 20

====

- Test system: ACHN renal
- Assay Explanation: NCI tumour cell line growth inhibition, 48 h
Value Type: TGI

1. O=C(c1ccccc1)c1cc(-c2ccccc2)c(-c2ccccc2)[nH]c(=O)c1=O :: > 100 µM

In: Input CC(C)(C)OC(=O)N1CC(COS(C)(=O)=O)c2ccc(O)cc21 (stereo unspecified) , output reported TGI.
Out: 3.12 µM

In: Input "N#C/C(=C/NC(=S)Nc1ccc(S(N)(=O)=O)cc1)C(N)=O" , output reported TGI.
Out: > 100 µM

In: Input "COC(=O)c1ccc2[nH]c3c(c2c1)CC(=O)Nc1ccccc1-3" , output reported TGI.
Out: > 100 µM

In: Input "C=CC(=O)N1CC[C@@H](Oc2nc(Nc3ccc(N4CCC(N5CCN(C)CC5)CC4)cc3)c(C(N)=O)nc2CC)C1" , output reported TGI.
Out: > 100 µM

In: Input "O=C(Cl)c1cc([N+](=O)[O-])cc([N+](=O)[O-])c1" , output reported TGI.
Out: > 100 µM

In: Input "Cn1c([N+](=O)[O-])cnc1/C=C1\Oc2ccc(Cl)cc2C1=O" , output reported TGI.
Out: 0.921 µM

In: Input "CN1C(=N\S(=O)(=O)c2ccc(Cl)cc2)/C(=N/N=P(c2ccccc2)(c2ccccc2)c2ccccc2)c2ccccc21" , output reported TGI.
Out: > 100 µM

====

- System: HT29 colon
- Assay Explanation: NCI tumour cell line growth inhibition, 48 h
Consider the following compounds and their measured TGI readings.

# annotated cases, reported TGI shown
1. CCOC(=O)C1(C/C=C\CBr)CCCCCCC1=O (stereo not drawn) :: > 100 µM
2. COc1ccc(C2CC(c3ccc(OC)c(OC)c3)=NN2C(=O)c2cc(OC)c(OC)c(OC)c2)cc1 (stereo not drawn) :: > 100 µM

In: Input "N#C/C(=C/NC(=S)Nc1ccc(S(N)(=O)=O)cc1)C(N)=O" , output reported TGI.
Out: > 100 µM

====

- Tested on: NCI-H23 lung
- Assay Explanation: NCI tumour cell line growth inhibition, 48 h
Value Type: TGI

# annotated cases, reported TGI shown
1) CC(=O)NC(Cc1ccccc1)C(=S)N1CCCC1 (stereo not drawn) :: > 100 µM
2) COC(=O)c1cc(CNCCc2c[nH]c3ccccc23)on1 :: > 100 µM
3) CC1SC(c2cccc(Oc3ccccc3)c2)N(CCc2cccs2)C1=O (stereo not drawn) :: 3.55 µM

In: Input "Fc1ccccc1N=c1oc2ccc(Br)cc2cc1-c1nc2ccccc2[nH]1" , output reported TGI.
Out: 29.8 µM

In: Input S=C(N/N=C/c1ccccc1)NC1CC(c2ccccc2)Oc2ccccc21 (stereo not drawn) , output reported TGI.
Out: > 100 µM

In: Input "CC(C)(C)C(=O)C(C#N)C(=O)C(C)(C)C" , output reported TGI.
Out: > 100 µM

In: Input Cc1[nH]c(=O)nc2c1C(=O)N(C(C)C)C(NC(C)C)S2 (stereo not drawn) , output reported TGI.
Out: > 100 µM

In: Input CCC(c1ccc(N(C)C)cc1)C1NC(=S)NC1=O (stereo not drawn) , output reported TGI.
Out: > 100 µM

In: Input "N#Cc1c(-c2ccc(Cl)cc2)n([O-])c2ccccc2[n+]1=O" , output reported TGI.
Out: 31.3 µM

====

Consider the following compounds and their measured TGI readings.
- Tested on: IGROV1 ovarian
- Assay Explanation: NCI tumour cell line growth inhibition, 48 h

In: Input CCN(CC)CCCC(C)NC(=S)N/N=C(\C)c1ccccn1 (stereo not given) , output reported TGI.
Out: > 100 µM

In: Input "COc1cc2c(oc(=O)c3c4oc([Si](C)(C)C)cc4cc(OC)c23)c2cccc(O)c12" , output reported TGI.
Out: > 100 µM

In: Input "CC(=O)CC(=O)Nn1c(-c2cccs2)nc2ccc(I)cc2c1=O" , output reported TGI.
Out: > 100 µM

In: Input "CCS(=O)(=O)Nc1ccc(Oc2ccc(F)cc2F)c(-c2cn(C)c(=O)c3[nH]ccc23)c1" , output reported TGI.
Out: 20.5 µM

In: Input "CN(C)/C=C/c1ccnc2c1C(=O)c1ccccc1C2=O" , output reported TGI.
Out: 35.2 µM

In: Input "CC1=C2CC3=C(C)C(=O)O[C@H]3C[C@@H](C)[C@@H]2CC1" , output reported TGI.
Out: > 100 µM
